This collection of values is drawn from the supplement of paper PMC11061612.

- System: SK-N-FI (Neuroblastoma);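 further: after 72 h of two-drug dosing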
- test-name: Bliss excess, mean over the matrix (fraction); higher = more synergy
For each record, write down the corresponding Bliss excess.
# answer = number (no unit)

Query: Look up Bliss excess for this compound: Cc1cc2ncnn2cc1Nc1ncc2c(n1)n(C1CCOCC1)c(=O)n2C [AZD7648] + C=CCn1c(=O)c2cnc(Nc3ccc(N4CCN(C)CC4)cc3)nc2n1-c1cccc(C(C)(C)O)n1 [AZD1775] (first compound max 10 µM, partner max 1 µM)
Reply: -0.0415

Query: Look up Bliss excess for this compound: CC1(C)CCC(CN2CCN(c3ccc(C(=O)NS(=O)(=O)c4ccc(NCC5CCOCC5)c([N+](=O)[O-])c4)c(Oc4cnc5[nH]ccc5c4)c3)CC2)=C(c2ccc(Cl)cc2)C1 [Venetoclax] + C[C@@H]1COCCN1C2=NC(=NC(=C2)C3(CC3)[S@](=N)(=O)C)C4=C5C=CNC5=NC=C4 [AZD6738] (first compound max 1 µM, 7x7, partner max 10 µM)
Reply: 0.0009

Query: Look up Bliss excess for this compound: COc1cccc(OCCCN)c1-c1cc(Nc2cnc(C#N)cn2)n[nH]1 [Prexasertib] + C=CCn1c(=O)c2cnc(Nc3ccc(N4CCN(C)CC4)cc3)nc2n1-c1cccc(C(C)(C)O)n1 [AZD1775] (first compound max 1 µM, partner max 1 µM)
Reply: 0.0466

Query: Look up Bliss excess for this compound: Cc1c2c(nn1C)CSCc1cc(n(C)n1)CSc1cc(c3ccccc3c1)OCCCc1c(C(=O)O)n(C)c3c-2c(Cl)ccc13 [AZD5991] + Cn1cnc2c(F)c(Nc3ccc(Br)cc3Cl)c(C(=O)NOCCO)cc21 [Selumetinib] (first compound max 1 µM, 7x7, partner max 3 µM)
Reply: -0.0042

Query: Look up Bliss excess for this compound: CC1(C)CCC(CN2CCN(c3ccc(C(=O)NS(=O)(=O)c4ccc(NCC5CCOCC5)c([N+](=O)[O-])c4)c(Oc4cnc5[nH]ccc5c4)c3)CC2)=C(c2ccc(Cl)cc2)C1 [Venetoclax] + Cn1cnc2c(F)c(Nc3ccc(Br)cc3Cl)c(C(=O)NOCCO)cc21 [Selumetinib] (first compound max 1 µM, 7x7, partner max 3 µM)
Reply: 0.0374
